Recorded values, source patent US20240317716A1.

Test: Solubility of 1-(3-cyano-1-isopropyl-indol-5-yl)pyrazole-4-carboxylic acid in organic solvents
Type: physicochemical
Settings: organic solvent or mixture; in acetone
endpoint.name: solubility

input: I am curious: what solubility value has been reported for CC(C)n1cc(C#N)c2cc(-n3cc(C(=O)O)cn3)ccc21 ?
output: 100 to 1000 µg/mL

====

Test: Solubility of 1-(3-cyano-1-isopropyl-indol-5-yl)pyrazole-4-carboxylic acid in organic solvents
Type: physicochemical
Details: organic solvent or mixture; in ACN
endpoint.name: solubility

input: // lookup solubility for CC(C)n1cc(C#N)c2cc(-n3cc(C(=O)O)cn3)ccc21
output: ≤ 100 µg/mL
